FYI, the data here is from DBAASP.

Provide the recorded MIC for the entries that follow.
- System: Escherichia coli ATCC 25922
One number for each entry, in µM.

CC[C@H](C)[C@H](NC(=O)[C@H](CCCCN)NC(=O)[C@H](CCCCN)NC(=O)[C@H](CC(C)C)NC(=O)[C@H](CC(C)C)NC(=O)CN)C(=O)N[C@@H](CCCCN)C(=O)N[C@@H](Cc1c[nH]c2ccccc12)C(=O)N[C@@H](CC(C)C)C(=O)N[C@@H](CC(C)C)C(N)=O : 12.5

// below: MIC requested for another compound
Query (compound): CC(C)[C@H](N)C(=O)N[C@@H](CS)C(=O)N[C@@H](CCCN=C(N)N)C(=O)N[C@@H](CCCCN)C(=O)N1CCC[C@H]1C(=O)N[C@H](C(=O)N[C@H](C(=O)N[C@@H](CS)C(=O)N[C@@H](CCCN=C(N)N)C(=O)N[C@@H](CCCCN)C(=O)N1CCC[C@H]1C(=O)N[C@H](C(=O)N[C@H](C(=O)N[C@@H](CS)C(=O)N[C@@H](CCCN=C(N)N)C(=O)N[C@@H](CCCCN)C(=O)N1CCC[C@H]1C(=O)N[C@H](C(N)=O)C(C)C)C(C)C)C(C)C)C(C)C)C(C)C ; field requested: MIC
8

====

- Tested on: Staphylococcus epidermidis
- RUN_DESCRIPTION: ≥ marks a high value that may be exact or a test limit, other limits are often not marked, values filed in µg/mL are converted to µM
Label MET when MIC < 1 µM; otherwise NOT MET.

Examples from the recorded data:
CC[C@H](C)[C@H](NC(=O)[C@@H](NC(=O)CN)C(C)C)C(=O)N[C@@H](C)C(=O)N[C@@H](C)C(=O)N[C@@H](C)C(=O)N[C@@H](CCCCN)C(=O)N[C@@H](CCCCN)C(=O)N[C@H](C(=O)N[C@H](C(=O)N[C@@H](CC(N)=O)C(=O)N[C@H](C(=O)N[C@@H](CC(C)C)C(=O)N[C@@H](CCCCN)C(=O)N[C@@H](CC(N)=O)C(=O)N[C@@H](CC(C)C)C(=O)N[C@@H](Cc1ccccc1)C(N)=O)C(C)C)C(C)C)C(C)C : NOT MET
CC[C@H](C)[C@H](NC(=O)[C@H](CCCN=C(N)N)NC(=O)[C@H](C)NC(=O)[C@H](CC(C)C)NC(=O)[C@@H](N)CCCN=C(N)N)C(=O)N[C@H](C(=O)N[C@H](C(=O)N[C@H](C(=O)N[C@@H](CCCN=C(N)N)C(=O)N[C@@H](Cc1c[nH]c2ccccc12)C(=O)N[C@@H](C)C(=O)N[C@@H](CCCN=C(N)N)C(N)=O)[C@@H](C)CC)C(C)C)C(C)C : NOT MET

Hello, I'm reviewing records and need to know if MIC of CC[C@H](C)[C@H](NC(=O)[C@@H](NC(=O)[C@H](C)NC(=O)[C@H](C)NC(=O)[C@@H](NC(=O)[C@H](CCCCN)NC(=O)[C@H](CCCCN)NC(=O)[C@@H](NC(=O)[C@@H](NC(=O)[C@H](C)NC(=O)[C@H](Cc1ccccc1)NC(=O)[C@H](CC(C)C)NC(=O)[C@@H](N)CCCCN)C(C)C)[C@@H](C)CC)C(C)C)C(C)C)C(=O)NCC(=O)NCC(=O)N[C@@H](CC(C)C)C(N)=O is below 1 µM. Could you check?
NOT MET

Another compound to check: CC[C@H](C)[C@H](NC(=O)[C@H](CCCCN)NC(=O)[C@H](CCCCN)NC(=O)[C@H](Cc1ccccc1)NC(=O)[C@H](CC(C)C)NC(=O)[C@H](CCCCN)NC(=O)[C@H](Cc1c[nH]c2ccccc12)NC(=O)[C@@H](N)CCCCN)C(=O)NCC(=O)N[C@@H](CCCCN)C(=O)N[C@H](C(=O)N[C@@H](CC(C)C)C(=O)N[C@@H](CCCCN)C(=O)N[C@@H](CCCCN)C(=O)N[C@@H](CC(C)C)C(=O)O)C(C)C
MET

Repeat with CC[C@H](C)[C@H](NC(=O)[C@H](CCCCN)NC(=O)[C@H](CCCCN)NC(=O)[C@H](Cc1ccccc1)NC(=O)[C@H](CCCCN)NC(=O)[C@H](CCCCN)NC(=O)[C@H](Cc1c[nH]c2ccccc12)NC(=O)[C@@H](N)CCCCN)C(=O)NCC(=O)N[C@@H](C)C(=O)N[C@H](C(=O)N[C@@H](CC(C)C)C(=O)N[C@@H](CCCCN)C(=O)N[C@@H](CCCCN)C(=O)N[C@@H](CC(C)C)C(=O)O)C(C)C
MET

====

- System: Pseudomonas aeruginosa ATCC 9027
- RUN_DESCRIPTION: ≥ marks a high value that may be exact or a test limit, other limits are often not marked, values filed in µg/mL are converted to µM
Would you mind telling me the reported MIC of each entry?
Numbers only, in µM.

CC[C@H](C)[C@H](NC(=O)[C@H](C)N)C(=O)N[C@@H](CC(C)C)C(=O)N[C@@H](CCCN=C(N)N)C(=O)N[C@@H](CCCCN)C(=O)N[C@@H](C)C(=O)N[C@H](C(=O)N[C@@H](CCCN=C(N)N)C(=O)N[C@@H](CCCN=C(N)N)C(=O)N[C@@H](CC(C)C)C(=O)N[C@H](C(=O)N[C@@H](CCCCN)C(=O)N[C@@H](CC(C)C)C(=O)N[C@H](C(=O)N[C@H](C(N)=O)C(C)C)[C@@H](C)CC)C(C)C)[C@@H](C)O : 20

Could you now look at the following compound, please?
Requested read-out: MIC. Entry: CC(C)C[C@H](NC(=O)[C@H](Cc1ccccc1)NC(=O)[C@H](CCCCN)NC(=O)[C@H](CCCCN)NC(=O)[C@H](CC(C)C)NC(=O)[C@H](C)NC(=O)[C@H](CCCCN)NC(=O)[C@H](C)NC(=O)[C@H](CC(C)C)NC(=O)[C@H](CC(C)C)NC(=O)[C@H](CCCCN)NC(=O)[C@H](C)NC(=O)[C@@H](N)Cc1ccccc1)C(N)=O
67.1

====

- System: Staphylococcus aureus ATCC 25923
- RUN_DESCRIPTION: ≥ marks a high value that may be exact or a test limit, other limits are often not marked, values filed in µg/mL are converted to µM
QUANTITY_MEASURED: MIC (µM)
Give bare numbers, in µM.

Consider the following illustrative entries.
CC[C@H](C)[C@H](NC(=O)[C@H](CCCCN)NC(=O)[C@H](CCCCN)NC(=O)[C@H](C)NC(=O)[C@@H](NC(=O)[C@H](CCCCN)NC(=O)[C@H](CC(C)C)NC(=O)[C@H](CC(C)C)NC(=O)[C@H](CCCCN)NC(=O)[C@H](CCCCN)NC(=O)[C@H](CC(C)C)NC(=O)[C@H](CC(N)=O)NC(=O)[C@@H](N)CC(C)C)C(C)C)C(=O)N[C@@H](CC(C)C)C(N)=O : 16
CC[C@H](C)[C@H](NC(=O)[C@H](CCCN=C(N)N)NC(=O)[C@H](C)NC(=O)[C@H](CC(C)C)NC(=O)[C@@H](N)CCCN=C(N)N)C(=O)N[C@H](C(=O)N[C@H](C(=O)N[C@H](C(=O)N[C@@H](CCCN=C(N)N)C(=O)N[C@@H](Cc1c[nH]c2ccccc12)C(=O)N[C@@H](C)C(=O)N[C@@H](CCCN=C(N)N)C(N)=O)[C@@H](C)CC)C(C)C)C(C)C : 5.3
CC(C)C[C@H](NC(=O)[C@H](CCCN=C(N)N)NC(=O)[C@@H](N)CCCCN)C(=O)N[C@@H](CCCN=C(N)N)C(=O)N[C@@H](CCCN=C(N)N)C(=O)N[C@H](C(=O)N[C@@H](Cc1c[nH]c2ccccc12)C(=O)N[C@@H](CCCN=C(N)N)C(=O)N[C@@H](CCCN=C(N)N)C(=O)N[C@@H](Cc1c[nH]c2ccccc12)C(=O)N[C@@H](CCCN=C(N)N)C(N)=O)C(C)C : 5
CC[C@H](C)[C@H](N)C(=O)N[C@@H](CC(C)C)C(=O)NCC(=O)N[C@@H](CCCCN)C(=O)N[C@@H](CC(C)C)C(=O)N[C@@H](CC(C)C)C(=O)N[C@@H](CO)C(=O)N[C@H](C(=O)N[C@@H](C)C(=O)N[C@@H](C)C(=O)N[C@@H](CCCCN)C(=O)N[C@@H](CC(C)C)C(=O)N[C@@H](CC(C)C)C(=O)N[C@@H](CO)C(=O)N[C@@H](CCCCN)C(=O)N[C@@H](CC(C)C)C(N)=O)[C@@H](C)O : 2
CC[C@H](C)[C@H](NC(=O)CNC(=O)[C@H](CO)NC(=O)[C@H](CC(C)C)NC(=O)[C@H](CC(C)C)NC(=O)CN)C(=O)N[C@@H](CC(C)C)C(=O)NCC(=O)N[C@@H](C)C(=O)NCC(=O)N[C@@H](CCCCN)C(=O)N[C@@H](CCCN=C(N)N)C(=O)N[C@H](C(=O)N[C@H](C(=O)N[C@H]1CSSC[C@@H](C(=O)O)NC(=O)[C@H](CC(C)C)NC(=O)CNC(=O)[C@H](CO)NC(=O)[C@H](CC(C)C)NC(=O)CNC1=O)C(C)C)[C@@H](C)CC : 5.03

Reported MIC, compound CC[C@H](C)[C@H](NC(=O)[C@@H](NC(=O)CN)C(C)C)C(=O)N[C@@H](CCCCN)C(=O)N[C@@H](CO)C(=O)N[C@H](C(=O)N[C@@H](CC(C)C)C(=O)N[C@@H](CCCCN)C(=O)NCC(=O)N[C@H](C(=O)N[C@@H](C)C(=O)N[C@@H](CCCCN)C(=O)N[C@H](C(=O)N[C@H](C(=O)N[C@@H](C)C(=O)N[C@@H](CC(C)C)C(=O)NCC(=O)N[C@@H](CCSC)C(=O)N[C@@H](CC(C)C)C(N)=O)C(C)C)[C@@H](C)O)C(C)C)C(C)C : ____
12.5
